System: HTT mRNA
Test: Splicing assay (RT-qPCR) monitoring HTT splice variants, canonical (CJ) and alternative (AJ) junction
Type: cell-based
Condition context: decrease in CJ mRNA, 50% response, A673 or K562 cell line, 24 hours
Measured IC50 of individual entries

Illustrative cases are given below, each with its answer.
INSERT INTO results (compound, test_system, measured_result) VALUES
  ('CN1CCN(c2cc3sc(-c4cc(F)c5nn(C)cc5c4)nc3s2)CC1', 'HTT mRNA', '100 to 1000 nM'),
  ('Cc1cn2nc(-c3nc4sc(C5CCNC5)cc4s3)cc(C)c2n1 (stereo not drawn)', 'HTT mRNA', '100 to 1000 nM'),
  ('Cn1cc2cc(-c3cc4cn(C5=CCOCC5)nc4s3)cc(F)c2n1', 'HTT mRNA', '> 10000 nM'),
  ('Cc1cn2nc(-n3cc4sc(N5CCC(NC(C)(C)C)C5)cc4n3)cc(C)c2n1 (stereo not drawn)', 'HTT mRNA', '> 10000 nM'),
  ('Cn1cc2c(F)cc(-n3cc4cc(C5CCNCC5)sc4n3)cc2n1', 'HTT mRNA', '> 10000 nM');

What the record says about Cc1cn2cc(-n3cc4cc(C5CCNCC5)sc4n3)cc(F)c2n1 : IC50 is < 100 nM

What the record says about Cn1cc2cc(-c3cc4cn(C5CCNCC5)nc4s3)c(F)cc2n1 : IC50 is < 100 nM

What the record says about Cc1cn2nc(-n3cc4cc(C5CCNCC5)sc4n3)cc(C)c2n1 : IC50 is 100 to 1000 nM

What the record says about COc1cc2nn(C)cc2cc1-c1cc2cn(C3CCNCC3)nc2s1 : IC50 is 100 to 1000 nM
